Where these numbers come from: ChEMBL document CHEMBL3351486

Target: Induced myeloid leukemia cell differentiation protein Mcl-1/BH3-interacting domain death agonist (Homo sapiens)
Sequence (Q07820 whole entry, the tested form may be a part): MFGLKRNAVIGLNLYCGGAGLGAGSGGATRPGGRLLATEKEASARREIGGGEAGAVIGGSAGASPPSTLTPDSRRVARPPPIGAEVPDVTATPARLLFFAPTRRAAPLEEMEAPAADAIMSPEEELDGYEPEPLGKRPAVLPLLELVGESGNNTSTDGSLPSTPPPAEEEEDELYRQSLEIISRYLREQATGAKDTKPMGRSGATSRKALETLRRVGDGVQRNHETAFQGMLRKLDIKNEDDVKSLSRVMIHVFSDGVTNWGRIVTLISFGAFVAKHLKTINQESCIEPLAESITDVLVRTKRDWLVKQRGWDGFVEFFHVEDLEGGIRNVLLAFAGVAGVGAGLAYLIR
Sequence (P55957 whole entry, further chain, the tested form may be a part): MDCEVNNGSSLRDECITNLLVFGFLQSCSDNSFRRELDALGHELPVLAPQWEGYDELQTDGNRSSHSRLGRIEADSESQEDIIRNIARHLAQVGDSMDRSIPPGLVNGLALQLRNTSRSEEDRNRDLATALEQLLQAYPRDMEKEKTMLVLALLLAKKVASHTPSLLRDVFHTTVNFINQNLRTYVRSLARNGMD
Assay: Inhibition of Mcl1/Bid (unknown origin) interaction
Reported Property: pKi
One number for each entry, as −log10 of the molar value.

Compound String	Reported Property	Observed Result
CC(C)=CCC[C@H](C)[C@@H]1C=C[C@]2(C(=O)O)[C@@H](CC(C)=C[C@H]2/C=C(\C)c2ccc(C(=O)O)cc2)C1	pKi	4.80

We now examine a further compound.
input: // fetch pKi given entry CC(C)=CCC[C@@H](C)[C@@H]1C=C[C@]2(C(=O)O)[C@@H](CC(C)=C[C@H]2/C=C(\C)c2ccc(C(=O)O)cc2)C1
output: 5.04
